- Target: Human HER3, endogenous, on human cancer cell lines (SK-Br-3, MCF7, BT-474) (human, UniProt P21860 20-1342)
- Sequence (P21860 20-1342): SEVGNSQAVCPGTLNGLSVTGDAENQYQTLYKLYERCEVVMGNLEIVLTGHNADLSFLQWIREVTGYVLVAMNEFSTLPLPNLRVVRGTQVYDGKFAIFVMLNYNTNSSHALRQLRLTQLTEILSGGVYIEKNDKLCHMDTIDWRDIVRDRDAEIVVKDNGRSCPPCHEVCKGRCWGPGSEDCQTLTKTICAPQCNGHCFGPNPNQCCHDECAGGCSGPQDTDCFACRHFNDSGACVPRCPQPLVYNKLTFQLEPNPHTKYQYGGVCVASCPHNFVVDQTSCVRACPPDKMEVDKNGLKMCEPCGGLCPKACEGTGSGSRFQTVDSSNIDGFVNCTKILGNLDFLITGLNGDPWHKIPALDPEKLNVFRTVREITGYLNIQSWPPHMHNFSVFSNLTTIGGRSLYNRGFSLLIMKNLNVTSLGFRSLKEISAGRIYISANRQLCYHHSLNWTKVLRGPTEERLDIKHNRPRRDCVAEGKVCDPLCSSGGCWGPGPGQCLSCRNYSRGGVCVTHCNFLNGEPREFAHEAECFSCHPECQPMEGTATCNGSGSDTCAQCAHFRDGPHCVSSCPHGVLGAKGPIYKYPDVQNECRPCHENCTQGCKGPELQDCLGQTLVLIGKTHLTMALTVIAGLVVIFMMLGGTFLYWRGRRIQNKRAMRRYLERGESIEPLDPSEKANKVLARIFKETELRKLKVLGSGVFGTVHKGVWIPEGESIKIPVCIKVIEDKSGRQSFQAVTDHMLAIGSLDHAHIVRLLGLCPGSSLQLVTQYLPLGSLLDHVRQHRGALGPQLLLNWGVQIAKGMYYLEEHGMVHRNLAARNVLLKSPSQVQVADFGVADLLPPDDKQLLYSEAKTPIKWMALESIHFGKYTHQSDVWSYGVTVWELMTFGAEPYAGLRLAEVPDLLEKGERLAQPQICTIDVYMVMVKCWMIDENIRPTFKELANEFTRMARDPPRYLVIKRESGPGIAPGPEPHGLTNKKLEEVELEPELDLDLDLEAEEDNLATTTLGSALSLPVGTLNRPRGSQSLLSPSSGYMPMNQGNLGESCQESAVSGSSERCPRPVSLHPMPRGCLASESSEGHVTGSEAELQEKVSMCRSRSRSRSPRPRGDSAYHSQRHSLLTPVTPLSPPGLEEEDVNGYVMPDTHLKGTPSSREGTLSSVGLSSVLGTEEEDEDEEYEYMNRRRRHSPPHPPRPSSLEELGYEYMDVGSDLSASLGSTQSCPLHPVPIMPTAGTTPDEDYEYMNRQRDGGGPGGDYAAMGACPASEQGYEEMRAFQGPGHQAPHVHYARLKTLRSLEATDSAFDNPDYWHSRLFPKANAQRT
- Assay Protocol: cell-based or functional assay
Measure Name: MCF7 pHER3 % inhibition

MOR13765 (antibody, human IgG1, kappa, V domains shown, tested as IgG) VH: QVQLVQSGAEVKKPGESLKISCKGSGYSFTGSWVAWVRQMPGKGLEWMGIIYPGTSDTIYSPSFQGQVTISADKSISTAYLQWSSLKASDTAMYYCARVHIIQPPSAWSYNAMDVWGQGTLVTVSS VL: DIQMTQSPSSLSASVGDRVTITCRASQSISTYLNWYQQKPGKAPKLLIFGASNLQSGVPSRFSGSGSGTDFTLTISSLQPEDFATYYCQQSITELFTFGQGTKVEIKR | 71%

Kindly consider the entry below.
Query (binder): MOR12510 (antibody, human IgG1, kappa, V domains shown, tested as IgG) VH: QVQLVQSGAEVKKPGESLKISCKGSGYSFTNSWVAWVRQMPGKGLEWMGIIYPGNSDTIYSPSFQGQVTISADKSISTAYLQWSSLKASDTAMYYCARVHIIQPPSAWSYNAMDVWGQGTLVTVSS VL: DIQMTQSPSSLSASVGDRVTITCRASQSISTYLNWYQQKPGKAPKLLIFGASNLQSGVPSRFSGSGSGTDFTLTISSLQPEDFATYYCQQDIDEPWTFGQGTKVEIKR ; field requested: MCF7 pHER3 % inhibition
73%
